# Assay Text: Single ascending dose (SAD) pharmacokinetics in healthy volunteers
# Assay type: in vivo, human
# Settings: human, plasma, po, 1000 mg, single oral dose 1000 mg, plasma; read-out: AUCinf, geometric mean (Geo CV%)
Measured Quantity: AUC(0-inf) (ng·h/mL)
# unit: ng·h/mL | format: bare number

AUC(0-inf) for CC(=O)N1CCC(COc2cc(F)c3c(=O)[nH]c(CSC4CCOCC4)nc3c2)CC1 [RBN‐3143] ?
16500

###

# Assay Text: Multiple ascending dose (MAD) pharmacokinetics in healthy volunteers, BID for 14 days
# Format: in vivo, human
# Settings: human, plasma, oral, 500 mg, 500 mg BID, Day 1, plasma; read-out: Tmax, median [min-max]
Measured Quantity: Tmax (h)
# unit: h | format: bare number

So what's the measured Tmax for this one? CC(=O)N1CCC(COc2cc(F)c3c(=O)[nH]c(CSC4CCOCC4)nc3c2)CC1
2.52

###

# Test system: CYP3A4
# Assay Text: clinical
# Settings: human, in vivo, po, AUCinf, mean (SD), midazolam 2 mg single oral dose with RBN-3143 300 mg BID at steady state (day 16), N=12
Measured Quantity: AUC(0-inf) (ng·h/mL)
// units = ng·h/mL; emit number, no label

Bench note: what AUC(0-inf) did Cc1ncc2n1-c1ccc(Cl)cc1C(c1ccccc1F)=NC2 [Midazolam, midazolam] show?
19.9

###

# Assay Text: Food effect (high-fat breakfast) on RBN-3143 pharmacokinetics, cross-over
# Format: in vivo, human
# Settings: human, plasma, po, 500 mg, single 500 mg oral dose, fed (high-fat breakfast), N=13, linear mixed-effects model; read-out: Cmax, GLSM
Measured Quantity: Cmax (ng/mL)
Provide the reading as a plain figure in ng/mL.

May I ask what Cmax has been recorded for CC(=O)N1CCC(COc2cc(F)c3c(=O)[nH]c(CSC4CCOCC4)nc3c2)CC1 ?
2690

###

# Assay Text: Pantoprazole (PPI) effect on RBN-3143 pharmacokinetics, cross-over
# Type: in vivo, human
# Settings: human, plasma, po, 500 mg, single 500 mg oral dose, fasted without pantoprazole; read-out: Cmax, geometric mean (Geo CV%)
Measured Quantity: Cmax (ng/mL)
Reply numerically in ng/mL, unit not repeated.

Would you kindly share the measured Cmax for CC(=O)N1CCC(COc2cc(F)c3c(=O)[nH]c(CSC4CCOCC4)nc3c2)CC1 ?
1530

###

# Assay Text: Multiple ascending dose (MAD) pharmacokinetics in healthy volunteers, BID for 14 days
# Format: in vivo, human
# Settings: human, plasma, oral, 500 mg, 500 mg BID, Day 1, plasma; read-out: AUC12, mean (SD)
Measured Quantity: AUC (ng·h/mL)
The response must be a number in ng·h/mL with no trailing unit.

Please look up its AUC: CC(=O)N1CCC(COc2cc(F)c3c(=O)[nH]c(CSC4CCOCC4)nc3c2)CC1
8340

###

# Assay Text: Pantoprazole (PPI) effect on RBN-3143 pharmacokinetics, cross-over
# Format: in vivo, human
# Settings: human, plasma, po, single 500 mg oral dose, fasted with pantoprazole 40 mg QD, N=12, linear mixed-effects model; read-out: AUCinf, GLSM
Measured Quantity: AUC(0-inf) (ng·h/mL)
Numbers only here, please. The scale is ng·h/mL.

Which AUC(0-inf) is listed for CC(=O)N1CCC(COc2cc(F)c3c(=O)[nH]c(CSC4CCOCC4)nc3c2)CC1 ?
13800

The values you see were collected from paper PMC12209991.
